Measured values drawn from patent US20260184697A1 for this set.

Molecular target: EZH1/SUZ/EED (Homo sapiens, UniProt O75530+Q15022+Q92800)
Sequence (Q92800 2-747 limits assumed): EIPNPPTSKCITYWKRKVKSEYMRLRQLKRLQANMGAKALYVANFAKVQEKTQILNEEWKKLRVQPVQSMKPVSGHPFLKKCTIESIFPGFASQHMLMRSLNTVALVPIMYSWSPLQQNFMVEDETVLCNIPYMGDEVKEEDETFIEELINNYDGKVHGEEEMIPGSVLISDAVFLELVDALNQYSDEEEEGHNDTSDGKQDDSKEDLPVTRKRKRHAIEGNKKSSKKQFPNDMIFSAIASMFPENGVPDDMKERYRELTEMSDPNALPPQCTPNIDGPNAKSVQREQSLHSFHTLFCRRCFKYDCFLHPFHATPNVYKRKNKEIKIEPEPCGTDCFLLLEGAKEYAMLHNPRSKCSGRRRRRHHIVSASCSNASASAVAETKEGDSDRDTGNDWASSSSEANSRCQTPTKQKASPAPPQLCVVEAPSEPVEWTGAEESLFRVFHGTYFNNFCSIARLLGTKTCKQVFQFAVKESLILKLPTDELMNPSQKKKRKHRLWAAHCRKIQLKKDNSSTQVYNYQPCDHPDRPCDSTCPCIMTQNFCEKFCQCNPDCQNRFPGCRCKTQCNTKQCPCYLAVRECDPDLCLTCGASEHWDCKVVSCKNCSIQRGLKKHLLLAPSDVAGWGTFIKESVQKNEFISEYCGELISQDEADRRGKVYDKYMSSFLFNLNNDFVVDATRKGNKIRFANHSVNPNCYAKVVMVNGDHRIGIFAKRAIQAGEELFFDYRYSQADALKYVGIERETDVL
Sequence (Q15022 2-739 partner limits assumed): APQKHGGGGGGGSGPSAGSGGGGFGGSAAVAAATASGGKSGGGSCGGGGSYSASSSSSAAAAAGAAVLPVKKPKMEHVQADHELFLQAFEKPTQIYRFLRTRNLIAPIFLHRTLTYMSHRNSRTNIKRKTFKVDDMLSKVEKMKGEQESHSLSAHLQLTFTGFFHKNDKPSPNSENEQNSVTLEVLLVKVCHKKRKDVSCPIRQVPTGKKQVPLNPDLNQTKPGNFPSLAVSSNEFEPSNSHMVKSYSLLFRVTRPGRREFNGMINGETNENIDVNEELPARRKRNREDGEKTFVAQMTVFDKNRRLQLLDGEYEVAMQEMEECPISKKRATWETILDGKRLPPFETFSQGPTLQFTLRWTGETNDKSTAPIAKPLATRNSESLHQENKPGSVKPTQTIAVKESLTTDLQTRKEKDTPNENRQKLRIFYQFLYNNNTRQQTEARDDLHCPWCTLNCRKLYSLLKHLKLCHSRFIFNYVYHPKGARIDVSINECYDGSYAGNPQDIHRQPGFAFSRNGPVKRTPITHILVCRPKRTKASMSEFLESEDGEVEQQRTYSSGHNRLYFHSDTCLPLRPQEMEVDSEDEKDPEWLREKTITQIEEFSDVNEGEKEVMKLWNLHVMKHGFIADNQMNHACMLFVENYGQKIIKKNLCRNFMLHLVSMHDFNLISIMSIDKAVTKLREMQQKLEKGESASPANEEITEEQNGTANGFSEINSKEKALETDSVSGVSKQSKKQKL
Sequence (O75530 2-441 partner limits assumed): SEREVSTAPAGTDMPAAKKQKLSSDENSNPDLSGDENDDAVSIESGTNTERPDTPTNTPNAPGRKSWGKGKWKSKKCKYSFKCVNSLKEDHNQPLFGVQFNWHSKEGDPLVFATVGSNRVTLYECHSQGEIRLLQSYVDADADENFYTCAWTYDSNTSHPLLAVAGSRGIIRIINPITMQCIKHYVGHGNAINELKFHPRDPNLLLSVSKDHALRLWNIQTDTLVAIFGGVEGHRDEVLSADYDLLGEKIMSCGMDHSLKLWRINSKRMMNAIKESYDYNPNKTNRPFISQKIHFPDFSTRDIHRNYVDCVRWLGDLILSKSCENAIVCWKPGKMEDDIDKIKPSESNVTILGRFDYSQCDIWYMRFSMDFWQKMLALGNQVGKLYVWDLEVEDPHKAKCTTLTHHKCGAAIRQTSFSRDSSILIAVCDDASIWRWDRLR
Test: Inhibitory effect on EZH1 by the MTase-Glo method (Test Example 1)
Settings: EZH1/SUZ/EED 25 nM, H3 peptide 10 μM, SAM 3 μM, 30° C. 3 h, read-out: Test Example 1 WT EZH1 IC50

COMPOUND	BOUND TYPE	IC50, nM
COCCOC1CN([C@H]2CC[C@@H]([C@H]3COc4c(Cl)cc(C(=O)NCc5c(OC)cc(C)[nH]c5=O)c(C)c4O3)CC2)C1	=	5.5
Cc1cc(C)c(CNC(=O)c2cc(Cl)c3c(c2C)OC(C2CCC(N(C)C)CC2)CO3)c(=O)[nH]1 (stereo not drawn)	=	88.5
COC1(C(F)(F)F)CN(C2CCC(C3COc4c(Cl)cc(C(=O)NCc5c(C)cc(C)[nH]c5=O)c(C)c4O3)CC2)C1 (single isomer, unassigned) [Compound 68]	>	10000
Cc1cc(C)c(CNC(=O)c2cc(Cl)c3c(c2C)OC(C2CCC(N4CC5COCC5C4)CC2)CO3)c(=O)[nH]1 (single isomer, unassigned) [Compound 60]	=	94.9
Cc1cc(C)c(CNC(=O)c2cc(Cl)c3c(c2Cl)OC[C@@H]([C@H]2CC[C@@H](N(C)C)CC2)O3)c(=O)[nH]1	=	92
COC1(C(F)(F)F)CN(C2CCC(C3COc4c(Cl)cc(C(=O)NCc5c(C)cc(C)[nH]c5=O)c(C)c4O3)CC2)C1 (single isomer, unassigned) [Compound 69]	=	879
Cc1cc(C)c(CNC(=O)c2cc(Cl)c3c(c2C)OC(C2CCC(N4CC5COCC5C4)CC2)CO3)c(=O)[nH]1 (single isomer, unassigned) [Compound 59]	=	7
COCCN(C)[C@H]1CC[C@@H]([C@H]2COc3c(Cl)cc(C(=O)NCc4c(OC)cc(C)[nH]c4=O)c(C)c3O2)CC1	=	17.8
COC1CN([C@H]2CC[C@@H]([C@H]3COc4c(Cl)cc(C(=O)NCc5c([S+](C)[O-])cc(C)[nH]c5=O)c(C)c4O3)CC2)C1 (stereo partly drawn)	=	8490
COC1CN([C@H]2CC[C@@H]([C@H]3COc4c(Cl)cc(C(=O)NCc5c(C)cc(C)[nH]c5=O)c(C)c4O3)CC2)C1	=	33.1
Cc1cc(C)c(CNC(=O)c2cc(Cl)c3c(c2Cl)O[C@@H]([C@H]2CC[C@H](N(C)C)CC2)CO3)c(=O)[nH]1	=	769
COc1cc(C)[nH]c(=O)c1CNC(=O)c1cc(Cl)c2c(c1C)O[C@@H]([C@H]1CC[C@@H](N(C)C)CC1)CO2	=	8.1

* * *

Target: EZH1/SUZ/EED (Homo sapiens, UniProt O75530+Q15022+Q92800)
Test: Inhibitory effect on EZH1 by the MTase-Glo method (Test Example 1)
Conditions: EZH1/SUZ/EED 25 nM, H3 peptide 10 μM, SAM 3 μM, 30° C. 3 h, read-out: Test Example 1 WT EZH1 IC50
Please assign Criterion not met whenever IC50 is at or above 0.2 µM, and Criterion met whenever it is below.

>>> print(df.to_string())
                                   compound         class_name
0  Cc1cc(C)c(CNC(=O)c2cc(Cl)c3c(c2C)OC(C2CCC(NC4CC(F)C4)CC2)CO3)c(=O)[nH]1 (single isomer, unassigned) [Compound 64]  Criterion not met
1  COC1C2CN([C@H]3CC[C@H]([C@H]4COc5c(Cl)cc(C(=O)NCc6c(SC)cc(C)[nH]c6=O)c(C)c5O4)CC3)CC21 (stereo partly drawn)      Criterion met
2  Cc1cc(C)c(CNC(=O)c2cc(Cl)c3c(c2C)OC(C2CCC(N4CC(OC5CC5)C4)CC2)CO3)c(=O)[nH]1 (single isomer, unassigned) [Compound 76]  Criterion not met
3  CSc1cc(C)[nH]c(=O)c1CNC(=O)c1cc(Cl)c2c(c1C)OC(C1CCN(CC3CC3)CC1)CO2 (stereo not drawn)      Criterion met
4  Cc1cc(C)c(CNC(=O)c2cc(Cl)c3c(c2C)OC[C@@H]([C@H]2CC[C@@H](N(C)C)CC2)O3)c(=O)[nH]1      Criterion met
5  COc1cc(C)[nH]c(=O)c1CNC(=O)c1cc(Cl)c2c(c1C)O[C@@H]([C@H]1CC[C@H](N3CC4C(C3)C4OC)CC1)CO2 (stereo partly drawn)      Criterion met
